system.name: T1, recombinant human midkine (huMK) (human, UniProt P21741 21-143)
T1 sequence (looked up): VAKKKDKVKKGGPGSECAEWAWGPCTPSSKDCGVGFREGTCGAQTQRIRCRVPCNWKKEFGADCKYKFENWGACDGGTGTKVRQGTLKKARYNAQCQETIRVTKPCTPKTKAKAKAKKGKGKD
assay.procedure: cell-based or functional assay
quantity.kind: Mean Cells/Field, Assay 6 (UMR106 migration, antibody 100 ug/mL, MK-17 20 µg/mL) (cells/field)
Give your result in cells/field as a bare value.

Incoming: Requested read-out: Mean Cells/Field, Assay 6 (UMR106 migration, antibody 100 ug/mL, MK-17 20 µg/mL). Entry: IP14-H6L3 (antibody, V domains shown, also called hIP14-H6L3; Hv6 Lv3) VH: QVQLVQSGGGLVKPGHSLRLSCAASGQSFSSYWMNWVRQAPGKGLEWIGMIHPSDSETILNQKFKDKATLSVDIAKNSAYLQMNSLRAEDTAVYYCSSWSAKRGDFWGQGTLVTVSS VL: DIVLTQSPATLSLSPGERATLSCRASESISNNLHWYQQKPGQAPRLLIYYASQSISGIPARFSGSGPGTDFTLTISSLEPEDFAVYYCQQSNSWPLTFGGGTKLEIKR
Outgoing: 23

Measured values drawn from patent US20170240628A1 for this set.
